growth by entry:
Tested on: SNB-75 CNS
Assay: NCI-60 one-dose screen, 48 h (100 = growth as untreated, 0 = no growth, -100 = all killed)
Conditions: 10 µM unless noted
About 83,000 compounds went through this panel and 20% of them were active in at least one assay; those are over-represented in the sample as a whole. The source made the active and inactive calls. How the source made its calls: active means growth percent below 10; inactive means the rest.

Answered examples (5):
O=C(NCc1cccnc1)/C(=C\c1ccc(Br)cc1)S(=O)(=O)c1ccccc1: 9.38% (active)
Cc1ccc(C(=O)Nc2nc3c(s2)CN(Cc2ccccc2)CC3)cn1: 66.9% (inactive)
CCOC(=O)c1cc2c(n1Cc1cc(OC)cc(OC)c1Br)-c1nc(NC(C)=O)sc1CCC2: 65.7% (inactive)
COC(=O)c1nc(-c2ccccc2)oc1S(=O)(=O)N(C)CCO: 95.5% (inactive)
COc1ccc(-c2ccc(-c3ccc(C(=N)N)cn3)s2)cc1Cl: -98.4% (active)

The recorded growth for O=c1c(/C=C/c2ccco2)nnc2sc(Nc3ccc(Cl)cc3)nn12 is 79.9% (inactive)

The recorded growth for CN1CCN(c2ccc(/C=C/C(=O)c3ccc(O)cc3)cc2)CC1 is 85.6% (inactive)

The recorded growth for COc1ccc(Cl)cc1Nc1nc(C(F)(F)F)ccc1C(=O)N/N=C/c1ccc(N(C)C)cc1 is 88.8% (inactive)

Ref: PubChem BioAssay (NCI)
